Tested on: Streptococcus pyogenes SSI-9
EXPERIMENT_NOTES: Antibacterial activity assay of bead-derived peptides (three concentrations)
Assay type: cell-based
Parameters: key: +++: inhibition by the 640-fold diluted peptide solution; ++: inhibition by the 160-fold diluted solution; +: inhibition by the 40-fold diluted solution; -: no inhibition
MEASUREMENT_PARAMETERS: S. pyogenes, bead-derived peptide solution, three concentrations
Where a SMILES comes first, the peptide text is derived from it. [ ]: non-standard residue; d: D form. The star is where a group is joined. NHCH2CH2OH = OCCN*; For = O=C*
PARAMETER: antibacterial activity

MOLECULE	OBSERVED_VALUE
CC(C)C[C@@H](NC(=O)[C@H](Cc1c[nH]c2ccccc12)NC(=O)[C@H](NC(=O)[C@H](Cc1c[nH]c2ccccc12)NC(=O)[C@@H](CC(C)C)NC(=O)[C@H](Cc1c[nH]c2ccccc12)NC(=O)[C@H](NC(=O)[C@@H](NC(=O)[C@H](NC(=O)[C@H](C)NC(=O)[C@H](NC(=O)[C@H](C)NC(=O)CNC(=O)[C@@H](NC=O)C(C)C)C(C)C)C(C)C)C(C)C)C(C)C)C(C)C)C(=O)N[C@@H](Cc1c[nH]c2ccccc12)C(=O)NCCO [compound 9293] (For-VGA[dV]A[dV]V[dV]W[dL]W[dV]W[dL]W-NHCH2CH2OH)	++
CC(C)C[C@@H](NC(=O)[C@H](Cc1c[nH]c2ccccc12)NC(=O)[C@H](NC(=O)[C@H](Cc1c[nH]c2ccccc12)NC(=O)[C@H](NC(=O)[C@H](Cc1c[nH]c2ccccc12)NC(=O)[C@@H](CC(C)C)NC(=O)[C@@H](NC(=O)[C@H](NC(=O)[C@H](C)NC(=O)[C@H](NC(=O)[C@H](C)NC(=O)CNC(=O)[C@@H](NC=O)C(C)C)C(C)C)C(C)C)C(C)C)C(C)C)C(C)C)C(=O)N[C@@H](Cc1c[nH]c2ccccc12)C(=O)NCCO [compound 10668] (For-VGA[dV]A[dV]V[dL]W[dV]W[dV]W[dL]W-NHCH2CH2OH)	+

====

System: Streptococcus pyogenes SSI-9
EXPERIMENT_NOTES: Antibacterial activity assay of bead-derived peptides (three concentrations)
Assay type: cell-based
Parameters: key: +++: inhibition by the 640-fold diluted peptide solution; ++: inhibition by the 160-fold diluted solution; +: inhibition by the 40-fold diluted solution; -: no inhibition
MEASUREMENT_PARAMETERS: S. pyogenes, bead-derived peptide solution, three concentrations
Where a SMILES comes first, the peptide text is derived from it. [ ]: non-standard residue; d: D form. The star is where a group is joined. NHCH2CH2OH = OCCN*; For = O=C*
PARAMETER: antibacterial activity

MOLECULE	TGT	OBSERVED_VALUE
CC(C)C[C@@H](NC(=O)[C@H](Cc1c[nH]c2ccccc12)NC(=O)[C@H](NC(=O)[C@H](Cc1c[nH]c2ccccc12)NC(=O)[C@H](NC(=O)[C@H](Cc1c[nH]c2ccccc12)NC(=O)[C@@H](CC(C)C)NC(=O)[C@@H](NC(=O)[C@H](NC(=O)[C@H](C)NC(=O)[C@H](NC(=O)[C@H](C)NC(=O)CNC(=O)[C@@H](NC=O)C(C)C)C(C)C)C(C)C)C(C)C)C(C)C)C(C)C)C(=O)N[C@@H](Cc1c[nH]c2ccccc12)C(=O)NCCO [compound 448] (For-VGA[dV]A[dV]V[dL]W[dV]W[dV]W[dL]W-NHCH2CH2OH)	Streptococcus pyogenes SSI-9	+
CC(C)C[C@@H](NC(=O)[C@H](Cc1c[nH]c2ccccc12)NC(=O)[C@H](NC(=O)[C@H](Cc1c[nH]c2ccccc12)NC(=O)[C@@H](CC(C)C)NC(=O)[C@H](Cc1c[nH]c2ccccc12)NC(=O)[C@@H](CC(C)C)NC(=O)[C@@H](NC(=O)[C@H](NC(=O)[C@H](C)NC(=O)[C@H](NC(=O)[C@H](C)NC(=O)CNC(=O)[C@@H](NC=O)C(C)C)C(C)C)[C@H](C)O)C(C)C)C(C)C)C(=O)N[C@@H](Cc1c[nH]c2ccccc12)C(=O)NCCO [compound 10686] (For-VGA[dV]A[dT]V[dL]W[dL]W[dV]W[dL]W-NHCH2CH2OH)	Streptococcus pyogenes SSI-9	-
CC(C)C[C@@H](NC(=O)[C@H](C)NC(=O)[C@H](NC(=O)[C@H](C)NC(=O)CNC(=O)[C@@H](NC=O)C(C)C)C(C)C)C(=O)N[C@H](C(=O)N[C@H](CC(C)C)C(=O)N[C@@H](Cc1c[nH]c2ccccc12)C(=O)N[C@H](CC(C)C)C(=O)N[C@@H](Cc1c[nH]c2ccccc12)C(=O)N[C@H](CC(C)C)C(=O)N[C@@H](Cc1c[nH]c2ccccc12)C(=O)N[C@H](CC(C)C)C(=O)N[C@@H](Cc1c[nH]c2ccccc12)C(=O)NCCO)C(C)C [compound 1343] (For-VGA[dV]A[dL]V[dL]W[dL]W[dL]W[dL]W-NHCH2CH2OH)	Streptococcus pyogenes SSI-9	-
CC(C)C[C@@H](NC(=O)[C@H](C)NC(=O)[C@H](NC(=O)[C@H](C)NC(=O)CNC(=O)[C@@H](NC=O)C(C)C)[C@H](C)O)C(=O)N[C@H](C(=O)N[C@@H](C(=O)N[C@@H](Cc1c[nH]c2ccccc12)C(=O)N[C@@H](C(=O)N[C@@H](Cc1c[nH]c2ccccc12)C(=O)N[C@H](CC(C)C)C(=O)N[C@@H](Cc1c[nH]c2ccccc12)C(=O)N[C@@H](C(=O)N[C@@H](Cc1c[nH]c2ccccc12)C(=O)NCCO)C(C)C)C(C)C)C(C)C)C(C)C [compound 8687] (For-VGA[dT]A[dL]V[dV]W[dV]W[dL]W[dV]W-NHCH2CH2OH)	Streptococcus pyogenes SSI-9	-
